Tested on: NQO1 activation in BEAS-2B cells
experimentalDetails: BEAS-2B cellular MTT assay of NQO1 activation, 0% HSA
Format: cell-based
particulars: Homo sapiens, Serum Free W, read-out: BEAS EC50 (nM) Serum Free W
quantityName: EC50 (nM)
I only need the number, in nM, no unit after it.

Cc1c2ccc3c1nnn3CCCCCc1ccc(cc1OC(F)F)C(=O)N1CCc3ccc(cc3C1)[C@@H]2CC(=O)O = 4.8

query: What does the record list as EC50 for Cc1cc2cc3c1CCN(C3)C(=O)c1ccc(cc1)CCCCCn1nnc3c(C)c(cnc31)C2CC(=O)O (centres unmarked) ?
result: 3.9

query: # EC50 lookup, item "Cc1cc2ncc1[C@@H](CC(=O)O)c1ccc3c(c1)CN(CC3)C(=O)c1c(F)cc(cc1F)CCCCCO2"
result: 17.6

query: Sample "COc1cc2ccc1C(=O)N1CCc3ccc(cc3C1)[C@H](CC(=O)O)c1cnc3c(nnn3CCCCC2)c1C" — what was its EC50?
result: 30.6

query: Recorded EC50 of "Cc1c2ccc3c1nnn3CCCCCCc1ccc(cc1)C(=O)N1CCc3ccc(cc3C1)[C@H]2[C@H](C)C(=O)O" , please.
result: 56.5

query: Requested field: EC50. Item: "COc1cc2ccc1CCCCCCn1nnc3c(C)c(cnc31)[C@@H](CC(=O)O)c1ccc3c(c1)CN(CC3)C2=O"
result: 25.5

query: Name the reported EC50 value associated with the compound "Cc1cc2ccc1C(=O)N1CCc3ccc(cc3C1)[C@@H](CC(=O)O)c1cnc(cc1C)OCCCCC2"
result: 1.7

query: # input compound: "Cc1c2n(C)c3ccc(cc13)CCCCCCn1nnc3c(C)c(cnc31)[C@H](CC(=O)O)c1ccc3c(c1)CN(CC3)C2=O" ; wanted: its EC50
result: 0.4

query: What measured EC50 goes with "COc1cc2ncc1[C@@H](CC(=O)O)c1ccc3c(c1)CN(CC3)C(=O)c1ccc(cc1)CCCCCO2" ?
result: 287

====

System: NQO1 activation in BEAS-2B cells
experimentalDetails: BEAS-2B cellular MTT assay of NQO1 activation, 0% HSA
Assay type: cell-based
particulars: Homo sapiens, serum free, read-out: BEAS EC50 (nM) serum free
Mark y only when EC50 stays strictly below 200 nM. Values equal to the cut-off are n.

Solved cases (5 shown):
O=C(O)CC1c2ccc(nc2)OCCCCCc2cnc(c(F)c2)C(=O)N2CCc3ccc1cc3C2 (centres unmarked) [Compound 194] = n
Cc1c2ccc3c1nnn3CCCCCCOc1ccc(c3ccccc13)C(=O)N1CCc3ccc(cc3C1)C2CC(=O)O (centres unmarked) [Compound 284] = y
Cc1c2ccc3c1nnn3CCCCCCOc1ccc(c(F)c1F)C(=O)N1CCc3ccc(cc3C1)C2CC(=O)O (centres unmarked) [Compound 318] = y
Cc1c2ccc3c1nnn3C/C=C/COCc1ccc(c(F)c1)C(=O)N1CCc3ccc(cc3C1)C2CC(=O)O (centres unmarked) [Compound 386] = y
Cc1c2cnc3c1nnn3CCCCCCc1ccc(cc1)C(=O)N1CCc3ccc(cc3C1)[C@@H]2CC(=O)O [Compound 138] = y

query: Field: below-cutoff. Rule: recorded EC50 strictly less than 200 nM. Subject: Cc1c2ccc3c1nnn3CCCCCCc1ccc(cc1)C(=O)N1CCc3ccc(cc3C1)[C@H]2[C@@H](C)C(=O)O [Compound 129]
result: n

query: Would you kindly verify if EC50 of COc1cc2ccc1CCCCCCn1nnc3c(C)c(ccc31)C(CC(=O)O)c1ccc3c(c1)CN(CC3)C2=O (centres unmarked) [Compound 189] is strictly less than 200 nM?
result: y

query: Threshold test, EC50 < 200 nM: Cc1c2ccc3c1nnn3CCCCCCOc1ccc(cc1)C(=O)N1CCc3ccc(cc3C1)[C@H]2[C@@H](C)C(=O)O [Compound 155]
result: n

====

System: NQO1 activation in BEAS-2B cells
experimentalDetails: BEAS-2B cellular MTT assay of NQO1 activation, 0.3% HSA
Assay type: cell-based
particulars: Homo sapiens, BEAS+, read-out: BEAS+ EC50
quantityName: EC50
Please answer in the form of a number followed by its unit of measurement.

Example entries begin here.
Cc1c2ccc3c1nnn3CCCCCCOc1ccc(c(F)c1)C(=O)N1CCc3ccc(cc3C1)[C@@H]2[C@@H](C)C(=O)O = 5.3 nM
Cc1c2ccc3c1nnn3CCCCCc1cc(F)c(c(F)c1)C(=O)N1CCc3ccc(cc3C1)C2CC(=O)O (stereo not drawn) = 20.4 nM
Cc1c2ccc3c1nnn3CCCCCCc1ccc(cc1)C(=O)N1CCc3ccc(cc3C1)[C@@H]2[C@@H](C)C(=O)O = 0.1 nM
Cc1c2cnc3c1nnn3CCCCCCc1ccc(cc1)C(=O)N1CCc3ccc(cc3C1)C2CC(=O)O (stereo not drawn) = 35.8 nM
O=C(O)CC1c2ccc(nc2)OCCCCCOc2ccc(c(F)c2)C(=O)N2CCc3ccc1cc3C2 (stereo not drawn) = 561 nM

query: What measured EC50 goes with Cc1c2ccc3c1nnn3CCCCCCc1ccc(c(F)c1)C(=O)N1CCc3ccc(cc3C1)C2CC(=O)O (stereo not drawn) ?
result: 3.3 nM

query: // lookup EC50 for Cc1cc2ncc1C(CC(=O)O)c1ccc3c(c1)CN(CC3)C(=O)c1ccc(cc1)CCCCCO2 (stereo not drawn)
result: 9.2 nM

query: Recorded EC50 for O=C(O)CC1c2ccc3c(c2)CN(CC3)C(=O)c2ccc(cc2F)CCCCCCn2nnc3cc1ccc32 (stereo not drawn) , please?
result: 159 nM

query: Which EC50 is reported for this compound? O=C(O)CC1c2cnc(nc2)OCCCCCc2ccc(c(F)c2)C(=O)N2CCc3ccc1cc3C2 (stereo not drawn)
result: 572 nM

====

System: NQO1 activation in BEAS-2B cells
experimentalDetails: BEAS-2B cellular MTT assay of NQO1 activation, 0% HSA
Assay type: cell-based
particulars: Homo sapiens, serum free, read-out: BEAS EC50 (nM) serum free
Exam item: assign T to entries whose EC50 is below 200 nM and F to entries at or above 200 nM. Note that a value of exactly 200 nM receives F.

Solved entries (count: 3):
O=C(O)CC1c2ccc3c(c2)CN(CC3)C(=O)c2ccc(cc2Cl)OCCCCCCn2nnc3cc1ccc32 (stereo not shown) = F
O=C(O)CC1c2ccc3c(c2)CN(CC3)C(=O)c2ccc(c(F)c2F)OCCCCCCn2nnc3cc1ccc32 (stereo not shown) = F
Cc1cc2ccc1C(=O)N1CCc3ccc(cc3C1)C(CC(=O)O)c1ccc3c(nnn3CCCCCC2)c1Cl (stereo not shown) = T

query: Criterion: EC50 strictly below 200 nM. Is it met by O=C(O)CC1c2ccc3c(c2)CN(CC3)C(=O)c2ccc(cn2)OCCCCCCn2nnc3c(Cl)c1ccc32 (stereo not shown) ?
result: F

query: Quick check: EC50 of "C[C@@H](C(=O)O)[C@H]1c2ccc3c(c2)CN(CC3)C(=O)c2c(F)cc(cc2F)OCCCCCCn2nnc3cc1ccc32" under 200 nM?
result: F

query: Is 200 nM strictly greater than the compound's reported EC50? compound: O=C(O)CC1c2ccc3c(c2)CN(CC3)C(=O)c2c(F)cc(cc2F)CCCCCCn2nnc3cc1ccc32 (stereo not shown)
result: T

query: Is the reported EC50 for O=C(O)CC1c2ccc(nc2)OCCCCOc2cnc(cn2)C(=O)N2CCc3ccc1cc3C2 (stereo not shown) strictly below 200 nM?
result: F

====

# Lookup of reported pIC50 keyed by entry
measuredTarget: HIS-Keap1 full length / Biotin-Nrf2 (16-mer) (Homo sapiens, UniProt Q14145)
Sequence (Q14145 whole entry): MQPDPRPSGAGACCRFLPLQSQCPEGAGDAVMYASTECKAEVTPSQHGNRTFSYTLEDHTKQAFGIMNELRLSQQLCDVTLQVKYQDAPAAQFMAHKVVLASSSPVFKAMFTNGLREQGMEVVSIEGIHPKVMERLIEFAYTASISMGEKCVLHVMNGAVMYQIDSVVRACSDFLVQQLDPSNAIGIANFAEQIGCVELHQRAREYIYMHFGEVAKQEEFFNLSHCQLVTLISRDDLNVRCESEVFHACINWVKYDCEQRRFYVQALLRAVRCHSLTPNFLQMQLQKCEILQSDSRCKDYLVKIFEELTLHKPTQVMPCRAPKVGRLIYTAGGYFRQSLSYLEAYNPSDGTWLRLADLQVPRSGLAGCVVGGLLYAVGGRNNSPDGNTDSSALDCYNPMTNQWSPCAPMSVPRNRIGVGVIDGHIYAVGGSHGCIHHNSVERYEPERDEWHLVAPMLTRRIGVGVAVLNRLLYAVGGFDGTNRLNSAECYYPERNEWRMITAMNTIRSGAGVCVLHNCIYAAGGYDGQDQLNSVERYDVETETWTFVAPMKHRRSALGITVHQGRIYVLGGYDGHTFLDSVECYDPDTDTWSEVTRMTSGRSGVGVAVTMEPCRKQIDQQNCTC
experimentalDetails: biochemical
Recall that pIC50 is obtained by taking minus log10 of the concentration measured in molar.

Cc1c2cnc3c1nnn3CCCCCCOc1cc(F)c(c(F)c1)C(=O)N1CCc3ccc(cc3C1)[C@@H]2CC(=O)O = 8.85
Cc1c2n(C)c3ccc(cc13)CCCCCCn1nnc3c(C)c(cnc31)[C@H](CC(=O)O)c1ccc3c(c1)CN(CC3)C2=O = 9.52
O=C(O)CC1c2ccc3c(c2)CN(CC3)C(=O)c2c(F)cc(cc2F)CCCCCCn2nnc3cc1ccc32 (stereo not shown) = 8.59

query: Please report the recorded pIC50 for "Cc1c2ccc3c1nnn3CCCCCOc1ccc(c(F)c1)C(=O)N1CCc3ccc(cc3C1)[C@@H]2CC(=O)O" .
result: 8.74

query: Param item = "Cc1c2ccc3c1nnn3CCCOCCOc1cc(F)c(c(F)c1)C(=O)N1CCc3ccc(cc3C1)[C@@H]2[C@@H](C)C(=O)O" ; retrieve measured pIC50.
result: 9.40

query: I am curious: what pIC50 value has been reported for "C[C@@H](C(=O)O)[C@H]1c2ccc3c(c2)CN(CC3)C(=O)c2ccc(cc2)OCCCCCCn2nnc3cc1ccc32" ?
result: 9.40

====

measuredTarget: HIS-Keap1 full length / Biotin-Nrf2 (16-mer) (Homo sapiens, UniProt Q14145)
experimentalDetails: biochemical
Recorded pIC50 values for a group of compounds are listed next.
# pIC50: negative log10 of molar concentration; output just the value

Cc1cc2ccc1C(=O)N1CCc3ccc(cc3C1)C(CC(=O)O)c1ccc3c(nnn3CCCCCC2)c1Cl (centres unmarked) = 8.60

query: Value lookup for pIC50; key = "Cc1c2cnc3c1nnn3CCCCCc1ccc(cc1)C(=O)N1CCc3ccc(cc3C1)[C@@H]2CC(=O)O"
result: 9.22

query: Quick one: pIC50 of "Cc1c2ccc3c1nnn3CCCCCc1ccc(cc1)C(=O)N1CCc3ccc(cc3C1)[C@H]2CC(=O)O" ?
result: 9.15

query: Fill in the blank: the reported pIC50 of Cc1c2ccc3c1nnn3CCCCCCOc1ccc(c(F)c1F)C(=O)N1CCc3ccc(cc3C1)C2CC(=O)O (centres unmarked) is ____.
result: 9.10

query: Can you look up the measured pIC50 of Cc1c2ccc3c1nnn3CCCCCCOc1ccc(nc1)C(=O)N1CCc3ccc(cc3C1)C2CC(=O)O (centres unmarked) for me?
result: 8.68

query: Suppose we examine the compound "C[C@@H](C(=O)O)[C@@H]1c2ccc3c(c2)CN(CC3)C(=O)c2c(F)cc(cc2F)OCCCCCCn2nnc3cc1ccc32" ; what pIC50 value has been reported?
result: 7.06

query: Recorded pIC50 for Cc1c2ccc3c1nnn3CCCCCCc1ccc(cc1)C(=O)N1CCc3ccc(cc3C1)C2CC(=O)O (centres unmarked) , please?
result: 9.70

query: Can you share its pIC50? I mean this compound: Cc1c2ccc3c1nnn3CCCCCc1ccc(c(F)c1)C(=O)N1CCc3ccc(cc3C1)C2CC(=O)O (centres unmarked)
result: 9.30

query: Name the recorded pIC50 for "Cc1c2ccc3c1nnn3CCCCCCc1c(F)c(F)c(c(F)c1F)C(=O)N1CCc3ccc(cc3C1)[C@@H]2CC(=O)O" .
result: 8.96

query: Would you kindly share the measured pIC50 for "COc1cc2ccc1C(=O)N1CCc3ccc(cc3C1)[C@@H](CC(=O)O)c1cnc3c(nnn3CCCCCC2)c1C" ?
result: 8.72

query: Field request: pIC50 | item: "Cc1c2cnc3c1nnn3CCCCCc1cc(F)c(c(F)c1)C(=O)N1CCc3ccc(cc3C1)[C@H]2CC(=O)O"
result: 10.00
